Catalogue of compounds with associated pIC50
experiment: Growth inhibition of human SW620 cells after 72 hrs by MTT assay; assay type: functional, cell-based; settings: SW-620, 72 h
pIC50: −log10 of the molar value.
ENDPOINT LABEL: pIC50

COMPOUND	VALUE OPERATOR	NUMBER
Cc1ccc2c(Cn3cc(CNc4ccc(-c5nc6ccc(C)cc6s5)cc4)nn3)cc(=O)oc2c1	≤	4.00
O=c1cc(Cn2cc(CNS(=O)(=O)c3ccc(F)cc3)nn2)c2ccc(O)cc2o1	<	4.00
CCCCCCc1ccc(-c2cn(Cc3cc(=O)oc4cc(O)ccc34)nn2)cc1	=	4.43
CCCCCCc1cn(Cc2cc(=O)oc3cc(O)ccc23)nn1	<	4.00
CCCCc1ccc(-c2cn(Cc3cc(=O)oc4cc(O)ccc34)nn2)cc1	=	4.31
CCCC1CCC(c2ccc(-c3cn(Cc4cc(=O)oc5cc(O)ccc45)nn3)cc2)CC1 (stereo unspecified)	=	4.43
Cc1ccc(S(=O)(=O)NCc2cn(Cc3cc(=O)oc4cc(O)ccc34)nn2)cc1	=	4.04
O=c1cc(Cn2cc(Cn3ccc4cc(I)ccc43)nn2)c2ccc(O)cc2o1	=	4.46
CCCCCc1ccc(-c2cn(Cc3cc(=O)oc4cc(O)ccc34)nn2)cc1	=	4.40
O=c1cc(Cn2cc(CSC(=S)N3CCOCC3)nn2)c2ccc(O)cc2o1	≤	4.00
Cc1ccc2nc(-c3ccc(NCc4cn(Cc5cc(=O)oc6cc(O)ccc56)nn4)cc3)sc2c1	=	4.05
O=c1cc(Cn2cc(-c3ccc(Br)cc3)nn2)c2ccc(O)cc2o1	=	4.01
O=c1cc(Cn2cc(-c3cc(F)cc(F)c3)nn2)c2ccc(O)cc2o1	=	4.18
CC(C)(C)c1cn(Cc2cc(=O)oc3cc(O)ccc23)nn1	<	4.00
O=c1cc(Cn2cc(CNS(=O)(=O)c3ccc(F)cc3Cl)nn2)c2ccc(O)cc2o1	<	4.00
O=c1cc(Cn2cc(CCCO)nn2)c2ccc(O)cc2o1	<	4.00
CC(O)c1cn(Cc2cc(=O)oc3cc(O)ccc23)nn1 (stereo unspecified)	<	4.00
CC(C)(C)OC(=O)N1CCN(C(=S)SCc2cn(Cc3cc(=O)oc4cc(O)ccc34)nn2)CC1	<	4.00
O=c1cc(Cn2cc(CCc3ccccc3)nn2)c2ccc(O)cc2o1	=	4.07
O=c1cc(Cn2cc(CCO)nn2)c2ccc(O)cc2o1	<	4.00
O=c1cc(Cn2cc(CNS(=O)(=O)c3ccc([N+](=O)[O-])cc3)nn2)c2ccc(O)cc2o1	<	4.00

* * *

Quick list: IC50 per entry.
test: Growth inhibition of human A549 cells after 72 hrs by MTT assay; assay type: functional, cell-based; conditions: A549, 72 h
ENDPOINT LABEL: IC50

COMPOUND	RESULT
Cn1c(-c2cn(Cc3cc(=O)oc4cc(O)ccc34)nn2)nc2ccccc21	> 100 µM
O=c1cc(Cn2cc(CNS(=O)(=O)c3ccc([N+](=O)[O-])cc3)nn2)c2ccc(O)cc2o1	> 100 µM
CC(O)c1cn(Cc2cc(=O)oc3cc(O)ccc23)nn1 (stereo not drawn)	> 100 µM
